assay.target: Human plasma kallikrein (human, UniProt P03952)
procedure.details: enzyme inhibition of plasma kallikrein, substrate S2302, fit to the tight-binding equation (apparent Ki*)
Where no end group is shown, it is not given here.
Values of Ki strictly less than 100 pM map to Criterion met, and values of at least 100 pM map to Criterion not met.

In plain terms, does KALI-PV (designed binder) VREVCSEQAEPGHCRAAHPRWYFDVTEGKCAPFVYGGCGGNRNNFDTEEYCAAVCGSA come in under 100 pM for Ki?
Criterion not met

In plain terms, does KALI-P (designed binder) VREVCSEQAEPGHCRAAHPRWYFDVTEGKCAPFFYGGCGGNRNNFDTEEYCAAVCGSA come in under 100 pM for Ki?
Criterion not met

In plain terms, does KALI-PY (designed binder, not fully specified (bridges); cysteine pairing not given here) VREVCSEQAEPGHCRAAHPRWYFDVTEGKCAPFYYGGCGGNRNNFDTEEYCAAVCGSA come in under 100 pM for Ki?
Criterion not met

In plain terms, does KALI-D (designed binder) VREVCSEQAEDGHCRAAHPRWYFDVTEGKCAPFFYGGCGGNRNNFDTEEYCAAVCGSA come in under 100 pM for Ki?
Criterion met

In plain terms, does KALI-DV (designed binder) VREVCSEQAEDGHCRAAHPRWYFDVTEGKCAPFVYGGCGGNRNNFDTEEYCAAVCGSA come in under 100 pM for Ki?
Criterion met
